Give growth for every item shown.
System: SNB-75 CNS
Test: NCI-60 one-dose screen, 48 h (100 = growth as untreated, 0 = no growth, -100 = all killed)
Conditions: 10 µM unless noted
The panel holds about 83,000 compounds, 20% with a hit somewhere; the sample as a whole holds those more often.
Numbers only, in %.

> print(dat)
                              line.notation  target.of.assay  measured.number
1     Clc1ccc(CN2COc3c(ccc4cccnc34)C2)cc1Cl       SNB-75 CNS             9.33
2  COc1cc2ncnc(Oc3ccc(NC(=O)Nc4ccc(C5(C#N)CCCC5)cc4)c4ccccc34)c2cc1OC       SNB-75 CNS             36.1
3  CCCCCCCC(=O)SCC/C=C/[C@@H]1CC(=O)NCc2nc(cs2)C2=N[C@@](C)(CS2)C(=O)N[C@@H](C(C)C)C(=O)N1       SNB-75 CNS             35.8
4   Cc1ccc(-c2cn3cc([N+](=O)[O-])ccc3n2)cc1       SNB-75 CNS             77.5

Here is another compound to look at.
Given the compound Cn1cnc([N+](=O)[O-])c1N1c2ccncc2Sc2ccncc21 and test system SNB-75 CNS, the measured growth is 233
